Test: Serum stability of prodrugs, human serum
Format: in vitro ADME
Conditions: prodrug, theoretical initial conc. 20 ug/mL
RECORDED METRIC: Conc. at t = 1 hr
A complete answer gives the number followed by the unit.

> print(dat)
                                     smiles       result
1  COc1ccc2c(c1C(=O)OCOC(=O)C(C)C)OB(O)[C@@H](NC(=O)CSC)C2  19500 ng/mL

Record request: Conc. at t = 1 hr value, item CCOC(=O)OCOC(=O)c1c(OC)ccc2c1OB(O)[C@@H](NC(=O)CSC)C2
20800 ng/mL

Record request: Conc. at t = 1 hr value, item CSCC(=O)N[C@H]1Cc2cc(Cl)c(F)c(C(=O)OCOC(=O)C(C)C)c2OB1O
6220 ng/mL
